Each recorded value in this set is attributed to ChEMBL document CHEMBL5365529.

- Test system: Candida tropicalis
- Protocol description: Antifungal activity against Candida tropicalis ATCC 1369 assessed as fungal growth inhibition incubated for 72 hrs by CLSI based susceptibility test
- Type: functional
Give MIC50 for every item shown.

Consider the reported MIC50 for these compounds:
compound="COC(=O)[C@@H](Cn1ccnc1)NC(=O)C1CCCN(C(=O)c2cccc(-c3ccccc3)c2)C1 (some centres undefined)" tgt="Candida tropicalis" endpoint_result="2 µg/mL"
compound="Cc1c(CN2CCCC(C(=O)N[C@H](Cn3cncn3)C(=O)OC(C)C)C2)cccc1-c1ccccc1 (some centres undefined)" tgt="Candida tropicalis" endpoint_result="0.25 µg/mL"
compound="CCOC(=O)[C@@H](Cn1ccnc1)NC(=O)C1CCCN(C(=O)c2cccc(-c3ccccc3)c2)C1 (some centres undefined)" tgt="Candida tropicalis" endpoint_result="0.5 µg/mL"

Turning to the following compound.
input: Request: MIC50, test system Candida tropicalis, entry CCOC(=O)[C@@H](Cn1cncn1)NC(=O)C1CCCN(Cc2cccc(-c3ccccc3)c2C)C1 (some centres undefined)
output: 0.5 µg/mL

###

- Tgt: Programmed cell death 1 ligand 1 (Homo sapiens, UniProt Q9NZQ7)
- Sequence (Q9NZQ7 whole entry): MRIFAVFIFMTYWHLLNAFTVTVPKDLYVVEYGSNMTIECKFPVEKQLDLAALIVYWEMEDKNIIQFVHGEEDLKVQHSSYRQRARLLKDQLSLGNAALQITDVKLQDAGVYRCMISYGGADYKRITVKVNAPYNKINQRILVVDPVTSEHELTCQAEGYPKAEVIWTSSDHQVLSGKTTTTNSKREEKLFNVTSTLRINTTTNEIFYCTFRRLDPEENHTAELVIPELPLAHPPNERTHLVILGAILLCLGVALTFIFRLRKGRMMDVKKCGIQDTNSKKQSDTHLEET
Observation type: pKd
Give bare numbers, as −log10 of the molar value.

Consider the reported pKd for these compounds:
compound=COC(=O)[C@@H](Cn1cncn1)NCc1cccc(OCc2cccc(-c3ccccc3)c2C)c1 endpoint_result=7.82
compound="Cc1c(CN2CCCC(C(=O)N[C@H](Cn3cncn3)C(=O)OC(C)C)C2)cccc1-c1ccccc1 (stereo partly drawn)" endpoint_result=7.82

input: Request: pKd, test system Programmed cell death 1 ligand 1 (Homo sapiens, UniProt Q9NZQ7), entry CC(C)OC(=O)[C@@H](Cn1ccnc1)NC(=O)C1CCCN(C(=O)c2cccc(-c3ccccc3)c2)C1 (stereo partly drawn)
output: 7.82

###

- Tested on: Nakaseomyces glabratus
- Protocol description: Antifungal activity against Candida glabrata assessed as fungal growth inhibition incubated for 72 hrs by CLSI based susceptibility test
- Assay type: functional
Observation type: MIC50 (µg/mL)
One number for each entry, in µg/mL.

compound=Cc1c(COc2cccc(CN[C@H](Cn3ccnc3)C(=O)OC(C)C)c2)cccc1-c1ccccc1 endpoint_result=0.5
compound="CCOC(=O)[C@@H](Cn1cncn1)NC(=O)C1CCCN(C(=O)c2cccc(-c3ccccc3)c2)C1 (some centres undefined)" endpoint_result=0.5

# per-item lookup of MIC50; items listed below
1. COC(=O)[C@@H](Cn1cncn1)NC(=O)C1CCCN(C(=O)c2cccc(-c3ccccc3)c2)C1 (some centres undefined)
2. CC(C)OC(=O)[C@@H](Cn1cncn1)NC(=O)C1CCCN(C(=O)c2cccc(-c3ccccc3)c2)C1 (some centres undefined)

output:
[0.5, 1]

###

- System: Cryptococcus neoformans
- Protocol description: Antifungal activity against Cryptococcus neoformans ZKCC 2209 assessed as fungal growth inhibition incubated for 72 hrs by CLSI based susceptibility test
- Format: functional
Give MIC50 for every item shown.
Give bare numbers, in µg/mL.

molecule="COC(=O)[C@@H](Cn1ccnc1)NC(=O)C1CCCN(C(=O)c2cccc(-c3ccccc3)c2)C1 (stereo not given in full)" endpoint_result=4
molecule="Cc1c(CN2CCCC(C(=O)N[C@H](Cn3ccnc3)C(=O)OC(C)C)C2)cccc1-c1ccccc1 (stereo not given in full)" endpoint_result=1
molecule=COC(=O)[C@@H](Cn1cncn1)NCc1cccc(OCc2cccc(-c3ccccc3)c2C)c1 endpoint_result=0.5
molecule="CC(=O)N1CCN(c2ccc(OCC3COC(Cn4ccnc4)(c4ccc(Cl)cc4Cl)O3)cc2)CC1 (stereo not given)" endpoint_result=4
molecule=OC(Cn1cncn1)(Cn1cncn1)c1ccc(F)cc1F endpoint_result=1
molecule="CCOC(=O)[C@@H](Cn1cncn1)NC(=O)C1CCCN(C(=O)c2cccc(-c3ccccc3)c2)C1 (stereo not given in full)" endpoint_result=2
molecule="CCOC(=O)[C@@H](Cn1cncn1)NC(=O)C1CCCN(Cc2cccc(-c3ccccc3)c2C)C1 (stereo not given in full)" endpoint_result=2
molecule=CCOC(=O)[C@@H](Cn1ccnc1)NCc1cccc(OCc2cccc(-c3ccccc3)c2C)c1 endpoint_result=1

# per-item lookup of MIC50; items listed below
1. Cc1c(COc2cccc(CN[C@H](Cn3cncn3)C(=O)OC(C)C)c2)cccc1-c1ccccc1
2. Cc1c(COc2cccc(CN[C@H](Cn3ccnc3)C(=O)OC(C)C)c2)cccc1-c1ccccc1
3. COC(=O)[C@@H](Cn1cncn1)NC(=O)C1CCCN(Cc2cccc(-c3ccccc3)c2C)C1 (stereo not given in full)
4. COC(=O)[C@@H](Cn1cncn1)NC(=O)C1CCCN(C(=O)c2cccc(-c3ccccc3)c2)C1 (stereo not given in full)
5. CCOC(=O)[C@@H](Cn1ccnc1)NC(=O)C1CCCN(Cc2cccc(-c3ccccc3)c2C)C1 (stereo not given in full)
6. CCOC(=O)[C@@H](Cn1ccnc1)NC(=O)C1CCCN(C(=O)c2cccc(-c3ccccc3)c2)C1 (stereo not given in full)
7. CCOC(=O)[C@@H](Cn1cncn1)NCc1cccc(OCc2cccc(-c3ccccc3)c2C)c1

output:
[2, 2, 2, 1, 1, 1, 2]

# per-item lookup of MIC50; items listed below
1. CC(C)OC(=O)[C@@H](Cn1cncn1)NC(=O)C1CCCN(C(=O)c2cccc(-c3ccccc3)c2)C1 (stereo not given in full)
2. COC(=O)[C@@H](Cn1ccnc1)NCc1cccc(OCc2cccc(-c3ccccc3)c2C)c1
3. COC(=O)[C@@H](Cn1ccnc1)NC(=O)C1CCCN(Cc2cccc(-c3ccccc3)c2C)C1 (stereo not given in full)
4. CC(C)OC(=O)[C@@H](Cn1ccnc1)NC(=O)C1CCCN(C(=O)c2cccc(-c3ccccc3)c2)C1 (stereo not given in full)
5. Cc1c(CN2CCCC(C(=O)N[C@H](Cn3cncn3)C(=O)OC(C)C)C2)cccc1-c1ccccc1 (stereo not given in full)

output:
1. 2
2. 1
3. 0.5
4. 0.5
5. 1

###

- Tgt: Programmed cell death 1 ligand 1 (Homo sapiens, UniProt Q9NZQ7)
Observation type: IC50 (nM)
Give bare numbers, in nM.

Consider the reported IC50 for these compounds:
compound=O=C(O)[C@@H](CO)NCc1cc(Cl)c(OCc2cccc(-c3ccccc3)c2Br)cc1OCc1cccnc1 tgt="Programmed cell death 1 ligand 1 (Homo sapiens, UniProt Q9NZQ7)" unit_abbreviation=nM endpoint_result=22
compound="CC(C)OC(=O)[C@@H](Cn1ccnc1)NC(=O)C1CCCN(C(=O)c2cccc(-c3ccccc3)c2)C1 (some centres undefined)" tgt="Programmed cell death 1 ligand 1 (Homo sapiens, UniProt Q9NZQ7)" unit_abbreviation=nM endpoint_result=63
compound="Cc1c(CN2CCCC(C(=O)N[C@H](Cn3cncn3)C(=O)OC(C)C)C2)cccc1-c1ccccc1 (some centres undefined)" tgt="Programmed cell death 1 ligand 1 (Homo sapiens, UniProt Q9NZQ7)" unit_abbreviation=nM endpoint_result=35

input: Given COC(=O)[C@@H](Cn1cncn1)NCc1cccc(OCc2cccc(-c3ccccc3)c2C)c1 , state its recorded IC50.
output: 21

###

- Tested on: Candida albicans
- Protocol description: Antifungal activity against FLC-resistant Candida albicans 632 assessed as fungal growth inhibition incubated for 72 hrs by CLSI based susceptibility test
- Type: functional
Give MIC50 for every item shown.
Answers are plain numbers, in µg/mL.

compound="CC(C)OC(=O)[C@@H](Cn1ccnc1)NC(=O)C1CCCN(C(=O)c2cccc(-c3ccccc3)c2)C1 (stereo not given in full)" unit_abbreviation=µg/mL endpoint_result=4
compound="Cc1c(CN2CCCC(C(=O)N[C@H](Cn3cncn3)C(=O)OC(C)C)C2)cccc1-c1ccccc1 (stereo not given in full)" unit_abbreviation=µg/mL endpoint_result=2

Turning to the following compound.
input: Given COC(=O)[C@@H](Cn1cncn1)NCc1cccc(OCc2cccc(-c3ccccc3)c2C)c1 , state its recorded MIC50.
output: 4

###

- Test system: Candida tropicalis
- Protocol description: Antifungal activity against Candida tropicalis ATCC 1369 assessed as fungal growth inhibition incubated for 72 hrs by CLSI based susceptibility test
- Type: functional
Give MIC50 for every item shown.
Kindly write the number and append the unit.

compound="CC(C)OC(=O)[C@@H](Cn1cncn1)NC(=O)C1CCCN(C(=O)c2cccc(-c3ccccc3)c2)C1 (some centres undefined)" endpoint_result="1 µg/mL"
compound="CC(=O)N1CCN(c2ccc(OCC3COC(Cn4ccnc4)(c4ccc(Cl)cc4Cl)O3)cc2)CC1 (centres undefined)" endpoint_result="0.5 µg/mL"
compound="CCOC(=O)[C@@H](Cn1ccnc1)NC(=O)C1CCCN(Cc2cccc(-c3ccccc3)c2C)C1 (some centres undefined)" endpoint_result="0.25 µg/mL"

Turning to the following compound.
input: Given CC(C)OC(=O)[C@@H](Cn1ccnc1)NC(=O)C1CCCN(C(=O)c2cccc(-c3ccccc3)c2)C1 (some centres undefined) , state its recorded MIC50.
output: 0.5 µg/mL

###

- System: Candida albicans
- Protocol description: Antifungal activity against FLC-resistant Candida albicans 17# assessed as fungal growth inhibition incubated for 72 hrs by CLSI based susceptibility test
- Format: functional
Give MIC50 for every item shown.
Numbers only, in µg/mL.

Consider the reported MIC50 for these molecules:
molecule="Cc1c(CN2CCCC(C(=O)N[C@H](Cn3cncn3)C(=O)OC(C)C)C2)cccc1-c1ccccc1 (stereo not given in full)" tgt="Candida albicans" observation_type=MIC50 endpoint_result=4
molecule="CC(=O)N1CCN(c2ccc(OCC3COC(Cn4ccnc4)(c4ccc(Cl)cc4Cl)O3)cc2)CC1 (stereo not given) [KETOCONAZOLE]" tgt="Candida albicans" observation_type=MIC50 endpoint_result=4

Turning to the following molecule.
input: Request: MIC50, test system Candida albicans, entry COC(=O)[C@@H](Cn1cncn1)NCc1cccc(OCc2cccc(-c3ccccc3)c2C)c1
output: 4
